The measurements presented in this section are drawn from paper PMC9861830.

# TEST DETAILS: Potentiometric and spectrophotometric titrations (protonation constants, speciation)
# Assay type: physicochemical
# TEST PARAMETERS: 25 °C, NaCl 0.1 M; step to H2L
READOUT KIND: pK

INPUT: Query (compound): "C/C(=N\NC(N)=S)c1cc2cc(O)c(O)cc2oc1=O" ; field requested: pK
OUTPUT: 7.8

Others:
INPUT: Query (compound): "C/C(=N\NC(N)=S)c1cc2ccc(O)c(O)c2oc1=O" ; field requested: pK
OUTPUT: 8.8

INPUT: Query (compound): "C/C(=N\NC(N)=S)c1cc2cccc(O)c2oc1=O" ; field requested: pK
OUTPUT: 6.9

INPUT: Query (compound): "C/C(=N\NC(N)=S)c1cc2ccc(O)cc2oc1=O" ; field requested: pK
OUTPUT: 7.1

INPUT: Query (compound): "C/C(=N\NC(N)=S)c1cc2ccccc2oc1=O" ; field requested: pK
OUTPUT: 5.0
